These compounds were tested on Cbl-b (Homo sapiens, UniProt Q13191); IC50 is the recorded read-out.
Sequence (Q13191 whole entry, species assumed): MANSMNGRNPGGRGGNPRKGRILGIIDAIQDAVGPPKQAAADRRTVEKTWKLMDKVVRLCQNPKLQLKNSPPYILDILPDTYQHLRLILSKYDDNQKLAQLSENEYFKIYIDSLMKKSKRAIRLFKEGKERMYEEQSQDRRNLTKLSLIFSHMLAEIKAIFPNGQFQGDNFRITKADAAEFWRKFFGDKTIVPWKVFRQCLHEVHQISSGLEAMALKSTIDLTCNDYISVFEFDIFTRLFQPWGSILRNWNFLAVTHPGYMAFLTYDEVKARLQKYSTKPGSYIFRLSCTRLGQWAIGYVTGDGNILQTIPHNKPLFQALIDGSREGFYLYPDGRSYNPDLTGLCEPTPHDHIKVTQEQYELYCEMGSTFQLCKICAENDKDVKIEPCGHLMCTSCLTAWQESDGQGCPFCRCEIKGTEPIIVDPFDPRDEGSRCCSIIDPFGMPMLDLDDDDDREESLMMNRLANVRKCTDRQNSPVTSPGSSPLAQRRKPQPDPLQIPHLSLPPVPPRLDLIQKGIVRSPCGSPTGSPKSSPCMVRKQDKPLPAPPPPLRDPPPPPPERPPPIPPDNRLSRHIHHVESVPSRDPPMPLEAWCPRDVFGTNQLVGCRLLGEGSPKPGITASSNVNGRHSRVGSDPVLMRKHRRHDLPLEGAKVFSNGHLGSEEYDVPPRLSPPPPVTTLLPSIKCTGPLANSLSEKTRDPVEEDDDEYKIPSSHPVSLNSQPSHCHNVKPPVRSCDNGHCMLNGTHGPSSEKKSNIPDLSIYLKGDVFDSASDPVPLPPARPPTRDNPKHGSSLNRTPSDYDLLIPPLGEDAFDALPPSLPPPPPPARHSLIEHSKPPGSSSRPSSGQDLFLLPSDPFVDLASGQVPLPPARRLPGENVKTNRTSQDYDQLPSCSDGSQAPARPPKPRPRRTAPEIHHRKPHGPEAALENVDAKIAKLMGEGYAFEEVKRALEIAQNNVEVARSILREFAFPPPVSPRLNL
property_name: IC50

compound="CC(c1ccnc(-n2cc(C3CC3)c3cc(CN4CCC[C@H](C)C4)[nH]c3c2=O)c1)c1nncn1C (some centres unmarked) [Example 157]" target_of_assay="Cbl-b (Homo sapiens, UniProt Q13191)" property_name=IC50 experimental_result="< 100 nM"
compound="CC1CC(c2cccc(-n3cc(C4CC4)c4cc(CN5CCC(F)(F)[C@H](C)C5)[nH]c4c3=O)c2)(c2nncn2C)C1 (some centres unmarked) [Example 57]" target_of_assay="Cbl-b (Homo sapiens, UniProt Q13191)" property_name=IC50 experimental_result="< 100 nM"
compound="C[C@H]1CCCN(Cc2cc3c(C4CC4)cn(-c4cccc(C5(Cn6ccnn6)CC(F)(F)C5)c4)c(=O)c3[nH]2)C1 [Example 123]" target_of_assay="Cbl-b (Homo sapiens, UniProt Q13191)" property_name=IC50 experimental_result="100 to 1000 nM"
compound="CC1CC(c2cccc(-n3cc(C4CC4)c4cc(CN5CC6CC(C5)O6)[nH]c4c3=O)c2)(c2nncn2C)C1 (centres unmarked) [Example 53]" target_of_assay="Cbl-b (Homo sapiens, UniProt Q13191)" property_name=IC50 experimental_result="< 100 nM"
compound="CC1CC(c2cccc(-n3cc(C4CC4)c4cc(CN5CCC[C@H](C(F)(F)F)C5)[nH]c4c3=O)c2)(c2nncn2C)C1 (some centres unmarked) [Example 48]" target_of_assay="Cbl-b (Homo sapiens, UniProt Q13191)" property_name=IC50 experimental_result="< 100 nM"
compound="CC(O)c1c[nH]c2c(=O)n(-c3cccc([C@]4(c5nncn5C)C[C@H](C)C4)c3)cc(C3CC3)c12 (single isomer, unassigned) [Example 24]" target_of_assay="Cbl-b (Homo sapiens, UniProt Q13191)" property_name=IC50 experimental_result="100 to 1000 nM"
compound="CC1CC(c2cccc(-n3cc(C4CC4)c4cc(CN5C[C@H]6C[C@@H]5CO6)[nH]c4c3=O)c2)(c2nncn2C)C1 (some centres unmarked) [Example 51]" target_of_assay="Cbl-b (Homo sapiens, UniProt Q13191)" property_name=IC50 experimental_result="< 100 nM"
compound="CC1CC(c2cccc(-n3cc(C4CC4)c4cc(CN(C)S(C)(=O)=O)[nH]c4c3=O)c2)(c2nncn2C)C1 (centres unmarked) [Example 69]" target_of_assay="Cbl-b (Homo sapiens, UniProt Q13191)" property_name=IC50 experimental_result="100 to 1000 nM"
compound="CC1CC(c2cccc(-n3cc(C4CC4)c4cc(CN5CCN(C)[C@H](C)C5)[nH]c4c3=O)c2)(c2nncn2C)C1 (some centres unmarked) [Example 61]" target_of_assay="Cbl-b (Homo sapiens, UniProt Q13191)" property_name=IC50 experimental_result="100 to 1000 nM"
compound="C[C@H]1CCCN(Cc2cc3ncn(-c4cccc(C5(c6nncn6C)CC(F)(F)C5)c4)c(=O)c3[nH]2)C1 [Example 120]" target_of_assay="Cbl-b (Homo sapiens, UniProt Q13191)" property_name=IC50 experimental_result="< 100 nM"
compound="CC1CC(c2cccc(-n3cc(C4CC4)c4cc(CO)[nH]c4c3=O)c2)(c2nncn2C)C1 (centres unmarked) [Example 8]" target_of_assay="Cbl-b (Homo sapiens, UniProt Q13191)" property_name=IC50 experimental_result="1000 to 5000 nM"
compound="Cn1cnnc1[C@]1(c2cccc(-n3ccc4c(C5CC5)c[nH]c4c3=O)c2)C[C@H](C)C1 (single isomer, unassigned) [Example 13]" target_of_assay="Cbl-b (Homo sapiens, UniProt Q13191)" property_name=IC50 experimental_result="100 to 1000 nM"
compound="O=c1c2[nH]c(CNCC3(O)CCC3)cc2c(C2CC2)cn1-c1cccc([C@]2(c3nncn3C(F)F)C[C@H](OC(F)F)C2)c1 [Example 152]" target_of_assay="Cbl-b (Homo sapiens, UniProt Q13191)" property_name=IC50 experimental_result="< 100 nM"
compound="CC1CC(c2cccc(-n3cc(C4CC4)c4cc(CN5CCO[C@H](C)C5)[nH]c4c3=O)c2)(c2nncn2C)C1 (some centres unmarked) [Example 45]" target_of_assay="Cbl-b (Homo sapiens, UniProt Q13191)" property_name=IC50 experimental_result="< 100 nM"
compound="CC1CC(c2cccc(-n3cc(C4CC4)c4cc[nH]c4c3=O)c2)(c2nncn2C)C1 (centres unmarked) [Example 4]" target_of_assay="Cbl-b (Homo sapiens, UniProt Q13191)" property_name=IC50 experimental_result="100 to 1000 nM"
compound="Cn1cnnc1C1(c2cccc(-n3cc(C4CC4)c4cc(CN[C@H]5COC[C@@H]5O)[nH]c4c3=O)c2)CC(F)(F)C1 [Example 92]" target_of_assay="Cbl-b (Homo sapiens, UniProt Q13191)" property_name=IC50 experimental_result="100 to 1000 nM"
compound="Cn1cncc1-c1c[nH]c2c(=O)n(-c3cccc([C@]4(c5nncn5C)C[C@@H](C)C4)c3)cc(C3CC3)c12 (single isomer, unassigned) [Example 34]" target_of_assay="Cbl-b (Homo sapiens, UniProt Q13191)" property_name=IC50 experimental_result="< 100 nM"
compound="CC1CC(c2cccc(-n3cc(C4CC4)c4cc(CN5CCC[C@H](F)C5)[nH]c4c3=O)c2)(c2nncn2C)C1 (some centres unmarked) [Example 64]" target_of_assay="Cbl-b (Homo sapiens, UniProt Q13191)" property_name=IC50 experimental_result="< 100 nM"
compound="Cn1cnnc1C1(c2cccc(-n3cc(C4CC4)c4cc[nH]c4c3=O)c2)CC2(CC2)C1 [Example 10]" target_of_assay="Cbl-b (Homo sapiens, UniProt Q13191)" property_name=IC50 experimental_result="100 to 1000 nM"
compound="C[C@H]1CCCN(Cc2cc3c(C(F)(F)F)cn(-c4cccc(C5(c6nncn6C)CC6(CC6)C5)c4)c(=O)c3[nH]2)C1 [Example 105]" target_of_assay="Cbl-b (Homo sapiens, UniProt Q13191)" property_name=IC50 experimental_result="< 100 nM"
compound="CC(C)n1cnnc1C1(c2cccc(-n3cc(C4CC4)c4cc(CN5CCC[C@H](C)C5)[nH]c4c3=O)c2)CC2(CC2)C1 [Example 145]" target_of_assay="Cbl-b (Homo sapiens, UniProt Q13191)" property_name=IC50 experimental_result="< 100 nM"
compound="CC1CC(c2cccc(-n3cnc4c(C(F)(F)F)c(CN5CCC[C@H](C)C5)[nH]c4c3=O)c2)(c2nncn2C)C1 (mixture of isomers) [Example 143]" target_of_assay="Cbl-b (Homo sapiens, UniProt Q13191)" property_name=IC50 experimental_result="< 100 nM"
compound="C[C@H]1CCCN(Cc2cc3c(C4CC4)cn(-c4cccc(C(C)(F)c5nccn5C)c4)c(=O)c3[nH]2)C1 (some centres unmarked) [Example 164]" target_of_assay="Cbl-b (Homo sapiens, UniProt Q13191)" property_name=IC50 experimental_result="1000 to 5000 nM"
compound="Cn1cnnc1C1(c2cccc(-n3cc(C4CC4)c4cc(CN5CCC6(CC6)C5)[nH]c4c3=O)c2)CC2(CC2)C1 [Example 70]" target_of_assay="Cbl-b (Homo sapiens, UniProt Q13191)" property_name=IC50 experimental_result="< 100 nM"
compound="CC1CC(c2cccc(-n3cnc4cc(CN5CCC[C@H](C)C5)[nH]c4c3=O)c2)(c2nncn2C)C1 (mixture of isomers) [Example 119]" target_of_assay="Cbl-b (Homo sapiens, UniProt Q13191)" property_name=IC50 experimental_result="< 100 nM"
compound="C[C@@H]1CN(Cc2cc3c(C4CC4)cn(-c4cccc(C5(c6nncn6C)CC6(CC6)C5)c4)c(=O)c3[nH]2)CCO1 [Example 71]" target_of_assay="Cbl-b (Homo sapiens, UniProt Q13191)" property_name=IC50 experimental_result="< 100 nM"
